Test system: Hep G2
Format: cell-based
study conditions: human, 24 h, 12.5 μM
endpoint label: Percentage of viable cells after treatment (%)
Kindly answer with a numeric value in %, unit omitted.

Task: Entry under review: CC[C@H]1OC(=O)[C@H](C)[C@@H](O[C@H]2C[C@@](C)(OC)[C@@H](O)[C@H](C)O2)[C@H](C)[C@@H](O[C@@H]2O[C@H](C)C[C@H](N(C)C)[C@H]2O)[C@](C)(O)C[C@@H](C)CN(C)[C@H](C)[C@@H](O)[C@]1(C)O [azithromycin, reference compound] . Reported Percentage of viable cells after treatment?
Output: 100

Task: Now this one: CC[C@H]1OC(=O)[C@H](C)[C@@H](O[C@H]2C[C@@](C)(OC)[C@@H](O)[C@H](C)O2)[C@H](C)[C@@H](O[C@@H]2O[C@H](C)C[C@H](N(C)C)[C@H]2O)[C@](C)(OC)C[C@@H](C)C(=O)[C@H](C)[C@@H](O)[C@]1(C)O [clarithromycin, reference compound]
Output: 100

Task: Likewise for `CC[C@H]1OC(=O)[C@H](C)[C@@H](OC(=O)CCN(CC)CC)[C@H](C)[C@@H](O[C@@H]2O[C@H](C)C[C@H](NC)[C@@H]2O)[C@](C)(OC)C[C@@H](C)C(=O)N[C@H](C)[C@@H](O)[C@]1(C)O` ?
Output: 100

Entry source: patent US7910559B2
